- Test system: MS2 coat protein
- protocol details: apparent KD of MS2 coat protein; designed switch direction (-1 OFF switch, 1 ON switch): -1; higher = weaker reporter binding
- cond: Eterna round: R95; input ligand: microRNA oligo, concentration not stated
Binary classification by apparent KD of MS2 coat protein, with 30 nM as an inclusive lower bound for condition met; all other cases are condition not met.

GGCCCUAAGGUCAGAUUCACAAGCUUUUUGCUCGUUUUAACAUGAGGAUCACCCAUGUCUAGUGGAUCUGAUCCUCU [Sensor v3, turn-off variant 2 (MOD of Indiso v.1)] (puzzle: Sensor v3, turn-off variant 2)    condition not met
GUUAAACAUGAGGAUCACCCAUGUAAGGAUAUGCUGCGGUAGAGAUGAAGUGAAUGCAGCAGAAGGUACAAUUG [Mat - Mod of JL D54] (puzzle: Exclusion 1)    condition met
GGACAGCGAGGAUAUACGUGUACGUUAUCCUCUAUGGGUCAACAUGAGGAUCACCCAUGUAGAAGGCGCAUAAU [Mabima] (puzzle: Exclusion 2)    condition not met
GAUCUGACAGGAUAUACAUGAGGAUCACCCAUGUACGAGCUAGCGAAAGCUAGCUCAGGUAGAAGGGUCAGAUC [Ex3 dot plot directed v5] (puzzle: Exclusion 3)    condition not met
GAUUAUGCGAGCUUUAGGGACAUGAGGAUCACCCAUGUUCGUCUUAUUAGUCUGGGUACGCUAACAUACCUAAAUCU [JMF 43] (puzzle: Sensor v3, turn-off variant 1)    condition met
GGUACUAACACGAGAGUGUUAGUACUAUAAGCUUGUGUUACAUGAGGAUCACCCAUGUCCUCAUAGGCUCGUCUUAU [Mat - Sensor v3 - Turn-off var 2 - D80] (puzzle: Sensor v3, turn-off variant 2)    condition not met

Enquiry: Could you please find out whether GAGAUGUGAGGAUAUCUGGACCGUGGAAGAGCCACGGUCCGAGAGAAGGCACAUGAGGAUCACCCAUGUGAUGA [Inerusce] (puzzle: Exclusion 4) has apparent KD of MS2 coat protein that meets 30 nM or exceeds it?
Return: condition met

Enquiry: I'd appreciate it if you could say whether CUUAGACAUGAGGAUCACCCAUGUGAGGAUAUGAUGAGGAUAAGGAAGGAAGAAGGAAUCAGAAGGCACAUAUG [Mat - Mod of Hyphema D27] (puzzle: Exclusion 1) has apparent KD of MS2 coat protein at least equal to 30 nM.
Return: condition met

Enquiry: Is apparent KD of MS2 coat protein at least 30 nM? Consider GACUGCUGAGGAUAUACAUGAGGAUCACCCAUGUGCUUCAGCAUCGAAAGAUGCAUUGGUAGAAGGUAGUAGUC [LRO-Excl3-06] (puzzle: Exclusion 3)
Return: condition not met

Enquiry: Given the entry AUUAAUCAGCAGGAUAUAAGUAUCUGAAGGUGGUUAGAAGGGCUGACAUGAGGAUCACCCAUGUGCUCUUCGUG [Vevetigeat] (puzzle: Exclusion 6) , answer whether its apparent KD of MS2 coat protein meets or surpasses 30 nM.
Return: condition not met

Enquiry: Textbook exercise: given the entry UGUACUAACACGGAAGUGUUAGUACUAUAAGCUUGUGUUACAUGAGGAUCACCCAUGUCCUCAUAAGCUCGUCUUAU [Mat - Sensor v3 - Turn-off var 2 - D74] (puzzle: Sensor v3, turn-off variant 2) , state whether its apparent KD of MS2 coat protein is greater than or equal to 30 nM.
Return: condition met
